Ref: ChEMBL document CHEMBL4689842

Tested on: Fibroblast
procedure summary: Multiplex assay against human fibroblast
Assay type: toxicity, cell-based
measurement conditions: 24 h, 10 µM, compound concentration 10 uM, replicate 1
Kindly apply the following: MET if Population Pyknosed Nuclei (%) is less than 20%, NOT MET in every other case.

{"columns": ["compound", "label class"],
 "data": [
  ["COc1ncc(-c2ccc3nccc(-c4ccnnc4)c3c2)cc1NS(=O)(=O)c1ccc(F)cc1F", "NOT MET"]
]}

Exam item: In plain terms, does O=C1NCN(c2ccccc2)C12CCN(CCCOc1ccc(F)cc1)CC2 [SPIRAMIDE] come in under 20% for Population Pyknosed Nuclei (%)?
Marked response: MET

Exam item: In plain terms, does CCN(CC)CCCCNc1ncc2cc(-c3cc(OC)cc(OC)c3)c(NC(=O)NC(C)(C)C)nc2n1 come in under 20% for Population Pyknosed Nuclei (%)?
Marked response: MET

Exam item: In plain terms, does Cc1csc2c(N[C@@H](C)CN3CCN(S(=O)(=O)c4ccc(Cl)c(Cl)c4)CC3)ncnc12 come in under 20% for Population Pyknosed Nuclei (%)?
Marked response: NOT MET

Exam item: In plain terms, does CN(C)C(=O)/C(C#N)=C/c1ccc(-c2nc3cnc4[nH]ccc4c3n2C2CCCCC2)o1 come in under 20% for Population Pyknosed Nuclei (%)?
Marked response: NOT MET

Exam item: In plain terms, does CC(C)NCC(O)COc1ccc(CCOCC2CC2)cc1.Cl (stereo not drawn) [BETAXOLOL HYDROCHLORIDE] come in under 20% for Population Pyknosed Nuclei (%)?
Marked response: NOT MET

Exam item: In plain terms, does CC(C)(O)CNc1ncc(-c2ccnc(Nc3ccnc(Cl)c3)n2)c(CC2CC2)n1 come in under 20% for Population Pyknosed Nuclei (%)?
Marked response: NOT MET

Exam item: In plain terms, does C=CC(=O)Nc1cccc(C(=O)Nc2ccc(Nc3cc(-c4[nH]c(SC)nc4C)ccn3)cc2)c1 come in under 20% for Population Pyknosed Nuclei (%)?
Marked response: NOT MET

###

System: Fibroblast
procedure summary: Multiplex assay against human fibroblast
Type: toxicity, cell-based
measurement conditions: 12 h, 1 µM, compound concentration 1 uM, replicate 2
# Population Hoechst High Intensity Objects (%) per record follows
// return numeric value only (unit: %, not printed)

Look over these answered cases.
{"columns": ["molecule", "reported result"],
 "data": [
  ["Cc1c(-c2ccc(O)cc2)n(Cc2ccc(OCCN3CCCCCC3)cc2)c2ccc(O)cc12", 10],
  ["CN(C)CC#Cc1ccc(OCCCc2sc(N3CCc4cccc(C(=O)Nc5nc6ccccc6s5)c4C3)nc2C(=O)O)c(F)c1", 4],
  ["Cc1nc(Nc2n[nH]c3c2CN(C(=O)N[C@H](CN(C)C)c2ccccc2)C3(C)C)c2sccc2n1", 28]
]}

Then this molecule:
Exam item: Need Population Hoechst High Intensity Objects (%), item c1cn2cc(-c3ccc4cn[nH]c4c3)nc(Nc3ccc(N4CCOCC4)cc3)c2n1
Marked response: 5

###

Test system: U2OS
procedure summary: Multiplex assay against U2OS
Type: toxicity, cell-based
measurement conditions: human, 48 h, 10 µM, compound concentration 10 uM, replicate 1
Threshold rule: Population Normal (%) greater than or equal to 90% is T; below that, F.

Use the examples below as a reference point.
{"columns": ["compound", "label class"],
 "data": [
  ["COc1ncc(-c2ccc3nccc(-c4ccnnc4)c3c2)cc1NS(=O)(=O)c1ccc(F)cc1F", "F"],
  ["Cc1nc(-c2ccc(-c3ccc(C(=O)N4CCc5cc6c(cc54)C4(CCN(C)CC4)CO6)cc3)c(C)c2)no1", "F"],
  ["CC[C@H](C)C(=O)O[C@H]1C[C@@H](C)C=C2C=C[C@H](C)[C@H](CC[C@@H]3C[C@@H](O)CC(=O)O3)[C@H]21", "T"],
  ["O=C1NCN(c2ccccc2)C12CCN(CCCOc1ccc(F)cc1)CC2 [SPIRAMIDE]", "F"],
  ["Cn1cc(-c2[nH]c3cc(NC(=O)[C@H](N)C4CCCCC4)cc4c3c2C=NNC4=O)cn1", "F"],
  ["Cc1cc(C)cc(-c2cnc3cc(Cl)c(-c4cccc(O)c4)cc3c2OCCCN)c1", "F"],
  ["C=CC(=O)Nc1cccc(C(=O)Nc2ccc(Nc3cc(-c4[nH]c(SC)nc4C)ccn3)cc2)c1", "T"]
]}

Exam item: Check the entry CNCc1ccccc1-c1csc([C@H](C)Nc2nc(C)nc3cc(OC)c(OC)cc23)c1 : does Population Normal (%) equal or exceed 90%?
Marked response: F

###

Test system: HEK-293T
procedure summary: Multiplex assay against HEK293T;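 note: share of the cells with healthy nuclei that show this phenotype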
Assay type: toxicity, cell-based
measurement conditions: human, 12 h, 10 µM, compound concentration 10 uM, replicate 1
Threshold rule: Population Tubulin-Different-Phenotype (%) greater than or equal to 60% is Criterion met; below that, Criterion not met.

Use the examples below as a reference point.
{"columns": ["compound", "label class"],
 "data": [
  ["O=C1NCN(c2ccccc2)C12CCN(CCCOc1ccc(F)cc1)CC2 [SPIRAMIDE]", "Criterion met"],
  ["Cc1nc(-c2ccc(-c3ccc(C(=O)N4CCc5cc6c(cc54)C4(CCN(C)CC4)CO6)cc3)c(C)c2)no1", "Criterion met"],
  ["Cn1cc(-c2[nH]c3cc(NC(=O)[C@H](N)C4CCCCC4)cc4c3c2C=NNC4=O)cn1", "Criterion met"],
  ["CCN(CC)CCCCNc1ncc2cc(-c3cc(OC)cc(OC)c3)c(NC(=O)NC(C)(C)C)nc2n1", "Criterion not met"],
  ["CN1CCN(c2ccc(OC(F)(F)F)c(Nc3ncc4c(n3)-c3c(c(C(N)=O)nn3CCO)CC4)c2)CC1", "Criterion met"]
]}

Exam item: Check the entry C=CC(=O)Nc1ccc2ncnc(Nc3ccc(OCc4cccc(F)c4)c(Cl)c3)c2c1.Cc1ccc(S(=O)(=O)O)cc1 : does Population Tubulin-Different-Phenotype (%) equal or exceed 60%?
Marked response: Criterion not met

Exam item: Check the entry COc1cc(-n2cnc3cc(-c4ccc(Cl)cc4)sc3c2=O)ccc1OCCN1CCCC1 : does Population Tubulin-Different-Phenotype (%) equal or exceed 60%?
Marked response: Criterion met

Exam item: Check the entry C=CC(=O)Nc1cccc(C(=O)Nc2ccc(Nc3cc(-c4[nH]c(SC)nc4C)ccn3)cc2)c1 : does Population Tubulin-Different-Phenotype (%) equal or exceed 60%?
Marked response: Criterion met

###

Tested on: Fibroblast
procedure summary: Multiplex assay against human fibroblast
Assay type: toxicity, cell-based
measurement conditions: 48 h, 10 µM, compound concentration 10 uM, replicate 1
property name: Population Apoptotic (%)
// return numeric value only (unit: %, not printed)

{"columns": ["compound", "readout unit", "reported result"],
 "data": [
  ["C=CC(=O)Nc1cccc(C(=O)Nc2ccc(Nc3cc(-c4[nH]c(SC)nc4C)ccn3)cc2)c1", "%", 43],
  ["Cc1nc(-c2ccc(-c3ccc(C(=O)N4CCc5cc6c(cc54)C4(CCN(C)CC4)CO6)cc3)c(C)c2)no1", "%", 90],
  ["C[C@@]1(C(=O)Nc2ccc(F)nc2)CCCN1c1nc(Nc2cc(C3CC3)n[nH]2)c2cccn2n1", "%", 92],
  ["NC(=O)Nc1cc(-c2cccc(F)c2)sc1C(=O)N[C@H]1CCCNC1", "%", 25],
  ["CCOCCn1cc(C(=O)Nc2ccc(-n3nc(-c4cccnc4)cc3C(F)(F)F)cn2)ccc1=O", "%", 55]
]}

Exam item: Fill in the recorded Population Apoptotic (%) for this compound, with Fibroblast as test system: Cc1csc2c(N[C@@H](C)CN3CCN(S(=O)(=O)c4ccc(Cl)c(Cl)c4)CC3)ncnc12
Marked response: 100

Exam item: Fill in the recorded Population Apoptotic (%) for this compound, with Fibroblast as test system: Cc1[nH]c(/C=C2\C(=O)Nc3ccc(S(=O)(=O)N(C)c4cccc(Cl)c4)cc32)c(C)c1C(=O)N1CCN(C)CC1
Marked response: 66

Exam item: Fill in the recorded Population Apoptotic (%) for this compound, with Fibroblast as test system: c1cn2cc(-c3ccc4cn[nH]c4c3)nc(Nc3ccc(N4CCOCC4)cc3)c2n1
Marked response: 43

Exam item: Fill in the recorded Population Apoptotic (%) for this compound, with Fibroblast as test system: COc1cc(-n2cnc3cc(-c4ccc(Cl)cc4)sc3c2=O)ccc1OCCN1CCCC1
Marked response: 93

Exam item: Fill in the recorded Population Apoptotic (%) for this compound, with Fibroblast as test system: Cc1cc(C)cc(-c2cnc3cc(Cl)c(-c4cccc(O)c4)cc3c2OCCCN)c1
Marked response: 56

Exam item: Fill in the recorded Population Apoptotic (%) for this compound, with Fibroblast as test system: CNc1nc(NCc2ccc(NS(C)(=O)=O)cc2Cl)cc(-c2ccccn2)n1
Marked response: 70

Exam item: Fill in the recorded Population Apoptotic (%) for this compound, with Fibroblast as test system: CC(C)NCC(O)COc1ccc(CCOCC2CC2)cc1.Cl (configuration not stated) [BETAXOLOL HYDROCHLORIDE]
Marked response: 76

Exam item: Fill in the recorded Population Apoptotic (%) for this compound, with Fibroblast as test system: Cn1cc(-c2[nH]c3cc(NC(=O)[C@H](N)C4CCCCC4)cc4c3c2C=NNC4=O)cn1
Marked response: 77

Exam item: Fill in the recorded Population Apoptotic (%) for this compound, with Fibroblast as test system: COc1cccc([C@@H](C)NCCCc2ccccc2Cl)c1.Cl [TECALCET HYDROCHLORIDE]
Marked response: 76

Exam item: Fill in the recorded Population Apoptotic (%) for this compound, with Fibroblast as test system: CN1CCC[C@@H]1CCO[C@](C)(c1ccccc1)c1ccc(Cl)cc1.O=C(O)/C=C/C(=O)O [CLEMASTINE FUMARATE]
Marked response: 78

Exam item: Fill in the recorded Population Apoptotic (%) for this compound, with Fibroblast as test system: CN1CCCC(n2nc(Cc3ccc(Cl)cc3)c3ccccc3c2=O)CC1.Cl (configuration not stated) [AZELASTINE HYDROCHLORIDE]
Marked response: 90

Exam item: Fill in the recorded Population Apoptotic (%) for this compound, with Fibroblast as test system: CC(C)(O)CNc1ncc(-c2ccnc(Nc3ccnc(Cl)c3)n2)c(CC2CC2)n1
Marked response: 54
